System: SK-MEL-2
PROCEDURE_DETAILS: NCI tumour cell line growth inhibition, 48 h
The source made the active and inactive calls. Cut-off read from the data, not from the text of the source: active = GI50 up to about 1.1 µM and inactive = higher.
Write down the outcome that applies. Available outcomes: active, inactive

Each compound tested received a call. Report the one for `O=C(NC(=O)c1ccccc1[N+](=O)[O-])Nc1ccc(Oc2ncc(Br)cn2)c(Cl)c1` .
active

Please let me know the test result on file for `Cc1cccc(/C=N\NC(=S)N2CCCCC2)n1` .
active

Please state the recorded outcome for this compound: `C#CCOC(=O)c1ccccc1OC(C)=O`
inactive

Outcome logged for `CCOP(=O)(/C=C\n1cc(C)c(=O)[nH]c1=O)OCC` in this assay:
inactive

Record request — test call for `N#CSc1[nH]cnc1C(N)=O`
inactive

Hi, do you know how `CCCCCCCCCCCCCP(=O)(OC)OC` came out in this test?
inactive

// param item: CC(C)(C)N1NC1C1NN1C(C)(C)C (configuration not stated) ; yields the recorded call
inactive

---

Test system: ACHN
PROCEDURE_DETAILS: NCI tumour cell line growth inhibition, 48 h
Active and inactive are the calls of the source. No stated cut-off is given here; in the data, active = GI50 up to about 1.1 µM and inactive = higher.
Your answer must be one of the following: active, inactive

For CN1N=C2c3ccccc3CC[C@H]2C1c1ccccc1 (stereo partly drawn) , which call appears in the assay record?
inactive

What outcome does the record of this test show for `COc1ccccc1C1(c2c(OC)c(=O)c2=O)SCCCS1` ?
inactive

Others:
Which outcome was entered for the compound CC(=O)OCC(OC(C)=O)C1C[C@H]2O[C@@H]3[C@H](C[C@H]2O1)O[C@@]1(C[C@@H]3C)C[C@H](C)[C@@H]2O[C@]3(C[C@@H]2O1)C[C@H]1O[C@H]2[C@H](C)[C@H]4OC(=O)CC5CC[C@H]6OC7[C@H]8O[C@]9(CC[C@H]%10CC(O)(CO)[C@H](CC[C@H]%11C[C@@H](C)C(O)(CO)C(C[C@@H]4O[C@H]2C[C@H]1O3)O%11)O%10)CC8O[C@@H]7[C@@H](O9)[C@H]6O5 (stereo partly drawn) in this test?
active

---

System: RPMI-8226
PROCEDURE_DETAILS: NCI tumour cell line growth inhibition, 48 h
Calls of active or inactive are those of the source. No stated cut-off is given here; in the data, active = GI50 up to about 1.1 µM and inactive = higher.
TEST_READOUT: GI50

// below: answered compounds
Given the entry CC1/C=C/C=C/CC/C=C/C=C/C=C/C=C/C(OC2OC(C)C(O)C(N)C2O)CC2OC(CC(O)C(O)CCC(O)CC(O)CC(O)CC(=O)OC(C)C(C)C1O)CC(O)C2C(=O)O (centres undefined) , report its measured GI50.
22.6 µM (inactive)

What value of GI50 has been recorded for this entry: `NC(=O)CO/N=C1/C(=C2/C(=O)Nc3ccccc32)Nc2ccccc21`
17.9 µM (inactive)

Recorded GI50 of CC12CC(c3ccccc3O1)C(C(=O)Nc1cccc(F)c1)C(=O)N2 (centres undefined) , please.
40.7 µM (inactive)

Others:
Tell me the measured GI50 of `C[N+](C)(C)CC(=O)N/N=C(/Cc1cc(=O)oc2cc(O)ccc12)C(=O)Nc1ccc(Cl)cc1` , please.
> 100 µM (inactive)

Bench note: what GI50 did `O=C(/C=C/c1ccc(OCc2cccc(Cl)c2)cc1)NO` show?
7.48 µM (inactive)

Param item = OC(c1cc(C(F)(F)F)nc2c(Cl)cc(Cl)cc12)C1CCCCN1 (centres undefined) ; retrieve measured GI50.
1.95 µM (inactive)

If you can, please state the reported GI50 value of `Cc1cccc(NC(=S)Nc2cccc(Cl)c2)n1` .
> 100 µM (inactive)

Form field: reported GI50 of `CCN(CC)c1ccc2cc3ccc(N(CC)CC)cc3[o+]c2c1`
0.305 µM (active)

Any idea what GI50 was measured for `C/C(=N\NC(=O)c1ccccc1O)c1c(O)cc(C)oc1=O` ?
50.4 µM (inactive)

Consider the compound shown here: COc1nc(=O)n(COC(CO)CN2C(=O)c3ccccc3C2=O)cc1Cc1cccc(OCc2ccccc2)c1 (centres undefined) What is its recorded GI50?
18.6 µM (inactive)

Endpoint output: GI50 of O=[N+]([O-])C1C2C=CC(C2)[C@H]1c1ccccc1Cl (some centres undefined) . Value?
> 69.8 µM (inactive)

Need GI50 of `CNC(=S)N/N=C(\C)c1ccc(OC)cc1O` , thanks.
> 32 µM (inactive)

What value of GI50 has been recorded for this entry: C=C(Br)C(C)(Br)CCC(Br)C(C)(C)Cl (centres undefined)
15.4 µM (inactive)

GI50 lookup needed for `Cc1cc2c(c(S(=O)(=O)c3ccc(Cl)cc3[N+](=O)[O-])c1)NCCC2` , thanks.
58.5 µM (inactive)

---

Test system: M14
PROCEDURE_DETAILS: NCI tumour cell line growth inhibition, 48 h
Calls of active or inactive are those of the source. Cut-off read from the data, not from the text of the source: active = GI50 up to about 1.1 µM and inactive = higher.
TEST_READOUT: GI50

Some solved cases for reference:
I'd like to know its GI50. The molecule in question is `Nc1ncnc2c1ncn2C(=O)NC12CC3CC(CC(C3)C1)C2`
> 100 µM (inactive)

Looking for the measured GI50 of COC(=O)C(=O)C1(CCC(C)=O)c2ccccc2-c2c(C)ccc(C)c21 (stereo not drawn) , can you help?
46.8 µM (inactive)

Could you now consider this next molecule?
So what does the record say about GI50 for `Cc1ccc2nc(N/N=C/c3cccc(C)n3)cc(C)c2c1` ?
24.2 µM (inactive)
